Measured activity change, positive = activation values are reported for all entries that follow.
Assay Summary: qHTS assay to identify small molecule agonists of the estrogen related receptor (ERR) signaling pathway from Tox21 library (AID 1224849); further: on the % scale 0 is the no-effect control and ±100 the full control effect; nearly all actives have a fitted effect of over 15% in size
Reported Conditions: ERR reporter cell line, ONE-Glo luciferase, 18 h; at 92.4 µM (top of the series) unless noted
The source made the active and inactive calls. The call rests on the fitted dose curve.
Parameter Measured: activity change, positive = activation

[[record]]
compound = "CCCCc1c(C)nc(NCC)[nH]c1=O"
result = "5.33% (inactive)"

[[record]]
compound = "CS(=O)(=O)c1cc(C(F)(F)F)ccc1C(=O)c1cnoc1C1CC1"
result = "9.23% (inactive)"

[[record]]
compound = "COC(=O)c1ccccc1S(=O)(=O)NC(=O)N(C)c1nc(C)nc(OC)n1"
result = "6.39% (inactive)"

[[record]]
compound = "CCOC(=O)C1(c2ccccc2)CCN(CCc2ccc(N)cc2)CC1"
result = "-11.7% [at 42.5 µM] (inactive)"

[[record]]
compound = "COC(=O)C(C)Oc1ccc(Oc2ccc(Cl)cc2Cl)cc1 (stereo unspecified)"
result = "-14.6% (inactive)"

[[record]]
compound = "Cc1ncc2n1-c1ccc(Cl)cc1C(c1ccccc1F)=NC2"
result = "12.1% [at 42.5 µM] (inactive)"

